Please consider the recorded pIC50 for rat CYP17 (rat testicular microsomes) (Rattus norvegicus) in what follows.
pIC50: −log10 of the molar value.

**Q:** Provide measured pIC50 value, entry: CC(N)(c1ccncc1)c1cnc(-c2ccc(F)cc2)s1 (stereo not drawn) [Example 68]
**A:** > 7.30

**Q:** Provide measured pIC50 value, entry: CC(O)(c1ccncc1)c1cnc(-c2ccc(Cl)cc2)s1 (stereo not drawn) [Example 28]
**A:** > 7.30

**Q:** Provide measured pIC50 value, entry: CC(O)(c1ccncc1)c1nc(-c2ccc(F)cc2)no1 (single isomer, unassigned; (+)) [Example 36]
**A:** > 7.30

**Q:** Provide measured pIC50 value, entry: CCCCC(=O)c1ccc(-c2ccc(C(C)(O)c3ccncc3)nc2)cn1 (stereo not drawn) [Example 62]
**A:** 6.70 to 7.30

**Q:** Provide measured pIC50 value, entry: CC(O)(c1ccncc1)c1cnc(-c2ccc(F)c(Cl)c2)s1 (stereo not drawn) [Example 46]
**A:** > 7.30

**Q:** Provide measured pIC50 value, entry: CCC(O)(c1ccncc1)c1cnc(-c2ccc(F)cc2)s1 (stereo not drawn) [Example 4]
**A:** > 7.30

**Q:** Provide measured pIC50 value, entry: CC(O)(c1ccncc1)c1cc(-c2ccc(F)cc2)n[nH]1 (stereo not drawn) [Example 49]
**A:** > 7.30

**Q:** Provide measured pIC50 value, entry: CC(O)(c1ccncc1)c1cnc(-c2ccc(C#N)cc2)s1 (stereo not drawn) [Example 56]
**A:** > 7.30

**Q:** Provide measured pIC50 value, entry: CC(O)(c1ccncc1)c1cnc(-c2ccc(F)cc2)s1 (single isomer, unassigned) [Example 8]
**A:** > 7.30

**Q:** Provide measured pIC50 value, entry: CC(O)(c1ccncc1)c1ncc(-c2ccc(F)cc2)s1 (single isomer, unassigned; (-)) [Example 54]
**A:** > 7.30

**Q:** Provide measured pIC50 value, entry: CC(O)(c1ccncc1)c1cnc(-c2ccc(F)c(F)c2)s1 (stereo not drawn) [Example 44]
**A:** > 7.30

**Q:** Provide measured pIC50 value, entry: OC(c1ccncc1)c1cnc(-c2ccc(F)cc2)s1 (stereo not drawn) [Example 24]
**A:** > 7.30

**Q:** Provide measured pIC50 value, entry: CC(C)C(O)(c1ccncc1)c1cnc(-c2ccc(F)cc2)s1 (stereo not drawn) [Example 33]
**A:** > 7.30

**Q:** Provide measured pIC50 value, entry: COc1ccc(-c2ccc(C(C)(O)c3ccncc3)nc2)cc1 (single isomer, unassigned) [Example 3]
**A:** 6.70 to 7.30

**Q:** Provide measured pIC50 value, entry: CCC(O)(c1ccncc1)c1ncc(-c2cn[nH]c2)o1 (stereo not drawn) [Example 57]
**A:** 6.70 to 7.30

**Q:** Provide measured pIC50 value, entry: CC(O)(c1ccncc1)c1cnc(-c2ccc(F)cc2)s1 (racemic) [Example 7]
**A:** > 7.30

**Q:** Provide measured pIC50 value, entry: CC(O)(c1ccncc1)c1ccc(-c2ccc(F)cc2)o1 (stereo not drawn) [Example 37]
**A:** 6.70 to 7.30

**Q:** Provide measured pIC50 value, entry: CC(O)(c1ccncc1)c1nc(-c2ccc(F)cc2)no1 (stereo not drawn) [Example 34]
**A:** > 7.30

====

- assay_target: human CYP17 in H295R adrenocortical carcinoma cells (Homo sapiens, UniProt P05093)
- Construct: H295R Adrenocortical carcinoma cells [NCI-H295A, ATCC Number CRL-2128, American Type Culture Collection
- experimental_details: Cell-based human CYP17 inhibition assay, H295R cells
- setup_conditions: 16 hours, read-out: CYP17 (human H295R adrenal cells)
observation_type: IC50

**Q:** Provide measured IC50 value, entry: COc1ccc(-c2ccc(C(C)(O)c3ccncc3)nc2)cc1 (racemic) [Example 1]
**A:** 50 to 200 nM

**Q:** Provide measured IC50 value, entry: OC(c1ccncc1)c1cnc(-c2ccc(F)cc2)s1 (centres unmarked)
**A:** 50 to 200 nM

**Q:** Provide measured IC50 value, entry: CC(O)(c1ccncc1)c1nnc(-c2ccc(F)cc2)s1 (centres unmarked)
**A:** 50 to 200 nM

**Q:** Provide measured IC50 value, entry: CCC(O)(c1ccncc1)c1cnc(-c2cn[nH]c2)s1 (single isomer, unassigned; (-)) [Example 19]
**A:** < 50 nM

**Q:** Provide measured IC50 value, entry: CC(O)(c1ccncc1)c1cnc(-c2ccc(S(C)(=O)=O)cc2)s1 (centres unmarked)
**A:** 201 to 10000 nM

**Q:** Provide measured IC50 value, entry: CC(O)(c1ccncc1)c1nc(-c2ccc(F)cc2)no1 (single isomer, unassigned; (-)) [Example 35]
**A:** 201 to 10000 nM

**Q:** Provide measured IC50 value, entry: CC(O)(c1ccncc1)c1cc(-c2ccc(F)cc2)ns1 (centres unmarked)
**A:** < 50 nM

**Q:** Provide measured IC50 value, entry: CC(O)(c1ccncc1)c1noc(-c2ccc(F)cc2)n1 (centres unmarked)
**A:** 201 to 10000 nM

**Q:** Provide measured IC50 value, entry: CC(O)(c1ccncc1)c1cnc(-c2ccc(F)c(Cl)c2)s1 (centres unmarked)
**A:** < 50 nM

**Q:** Provide measured IC50 value, entry: CC(O)(c1ccncc1)c1cnc(-c2ccc(C#N)c(C(F)(F)F)c2)s1 (centres unmarked)
**A:** 50 to 200 nM

**Q:** Provide measured IC50 value, entry: CCC(O)(c1ccncc1)c1cnc(-c2cn[nH]c2)s1 (centres unmarked) [Example 18]
**A:** < 50 nM

Taken from patent US8809372B2.
